- Read-out: Cytochrome P450 (CYP1A2), CYP1A2 (gene 1544)
- procedure summary: LTEA_HepaRG_CYP1A2: Life Technologies and Expression Analysis (LTEA) Assay for Cytochrome P450 (CYP1A2) using HepaRG (AID 2283479)
- condition set: mRNA level, 48 h; actives raise or lower the signal
Active and inactive are the calls of the source. Rule for the calls: active = hit-call score of the fitted dose curve at least 0.9, where 1 is the maximum; inactive = score below 0.9.
Possible outcomes: yes for active, no for inactive

{"molecule": "CCc1ccc(CCOc2ccc(CC3SC(=O)NC3=O)cc2)nc1 (centres undefined)", "label value": "yes"}
{"molecule": "CCCCCCCCCCCCc1ccccc1S(=O)(=O)O", "label value": "yes"}
{"molecule": "Cc1cc(CCN2CCN(c3nsc4ccccc34)CC2)cc2c1NC(=O)CC2(C)C", "label value": "yes"}
{"molecule": "Oc1cc2ccccc2c2ccccc12", "label value": "yes"}
{"molecule": "CCc1nn(C2CCCCC2)c2cc(C3(C#N)CCC(C(=O)O)CC3)ccc12 (centres undefined)", "label value": "yes"}
{"molecule": "Cc1oc(-c2ccccc2)nc1CCOc1ccc(C[C@H](Nc2ccccc2C(=O)c2ccccc2)C(=O)O)cc1", "label value": "yes"}
{"molecule": "CC(=O)CC(C)(C)O", "label value": "no"}
{"molecule": "CC1=C(/C=C/C(C)=C/C=C/C(C)=C/C(=O)O)C(C)(C)CCC1", "label value": "yes"}
{"molecule": "CC(C)(C)c1ccc(O)c(C(C)(C)C)c1", "label value": "yes"}
{"molecule": "COCC(C)OCC(C)O (centres undefined)", "label value": "no"}
{"molecule": "CCCOc1sc(C(=O)N2CCC(c3cc(CN)ccc3F)CC2)c(C)c1Br", "label value": "no"}
{"molecule": "CCCOC(=O)c1ccc(O)cc1", "label value": "no"}
{"molecule": "CC[C@H](C)[C@@H](C(=O)O)n1sc2ccccc2c1=O", "label value": "yes"}
{"molecule": "ClC1=C(Cl)C(Cl)(Cl)C(Cl)=C1Cl", "label value": "no"}

----------
- procedure summary: TOX21_p53_BLA_p4_viability: Viability Assessment in the Tox21 HCT-116 p53 Agonism Beta-lactamase Assay, Phase 4 (AID 2283597);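 note: hits lower the luminescence signal meaning cytotoxicity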
Records with an inconclusive call do not appear. Calls of active or inactive are those of the source. The calls were made as follows: active = hit-call score of the fitted dose curve at least 0.9, where 1 is the maximum; inconclusive = response in the unintended direction; inactive = score below 0.9.
Outcomes: active, inactive

{"molecule": "CCN(CC)CCNc1ccc(CNC=O)c2sc3ccc(OC)cc3c(=O)c12", "label value": "inactive"}
{"molecule": "CC(O)CO (stereo not given)", "label value": "inactive"}
{"molecule": "O=c1c(-c2ccc(O)cc2)coc2cc(O)ccc12", "label value": "inactive"}
{"molecule": "Cc1oc(-c2ccccc2)nc1CCOc1ccc(C[C@H](Nc2ccccc2C(=O)c2ccccc2)C(=O)O)cc1", "label value": "active"}
{"molecule": "O=C1OC2(c3ccccc31)c1cc(Br)c(O)c(Br)c1Oc1c2cc(Br)c(O)c1Br", "label value": "inactive"}
{"molecule": "CN(C)C=O", "label value": "inactive"}
{"molecule": "C=C(C)C(=O)OCCC(F)(F)C(F)(F)C(F)(F)C(F)(F)C(F)(F)C(F)(F)F", "label value": "inactive"}
{"molecule": "CC(C)CCCCCCOC(=O)CCCCC(=O)OCCCCCCC(C)C", "label value": "inactive"}
{"molecule": "CCc1nn(C2CCCCC2)c2cc(C3(C#N)CCC(C(=O)O)CC3)ccc12 (stereo not given)", "label value": "inactive"}
{"molecule": "O=C(O)Cc1cc(I)c(Oc2cc(I)c(O)c(I)c2)c(I)c1", "label value": "active"}
{"molecule": "CC[C@H](C)[C@@H](C(=O)O)n1sc2ccccc2c1=O", "label value": "inactive"}
{"molecule": "CCc1ccc(CCOc2ccc(CC3SC(=O)NC3=O)cc2)nc1 (stereo not given)", "label value": "inactive"}
{"molecule": "CCCOC(=O)c1ccc(O)cc1", "label value": "inactive"}
{"molecule": "ClC1=C(Cl)C(Cl)(Cl)C(Cl)=C1Cl", "label value": "inactive"}
{"molecule": "CC(=O)NC1(c2cccc(F)c2)CCN(CC[C@@]2(c3ccc(Cl)c(Cl)c3)CN(c3ccccc3)C(=O)CO2)CC1", "label value": "active"}
{"molecule": "COc1ccc([N+](=O)[O-])cc1N", "label value": "inactive"}
{"molecule": "CC(C)(C)c1cccc(C(C)(C)C)c1O", "label value": "inactive"}
{"molecule": "CCCCCCCCC(=O)O", "label value": "inactive"}
{"molecule": "Nc1cccc2c(N)cccc12", "label value": "inactive"}
{"molecule": "CN1CCN(c2ccccc2/C=C2\\SCCN(c3ccc(Cl)c(Cl)c3)C2=O)CC1", "label value": "inactive"}
{"molecule": "COC(=O)CCCCC(=O)OC", "label value": "inactive"}
{"molecule": "c1ccc2cc3c(ccc4ccccc43)cc2c1", "label value": "inactive"}
{"molecule": "CCCOc1sc(C(=O)N2CCC(c3cc(CN)ccc3F)CC2)c(C)c1Br", "label value": "active"}
{"molecule": "CCCCCCCCCCCCCCCS(=O)(=O)Oc1ccccc1", "label value": "inactive"}
{"molecule": "CC#C[C@]1(O)CC[C@H]2[C@@H]3CCC4=CC(=O)CCC4=C3[C@@H](c3ccc(N(C)C)cc3)C[C@@]21C", "label value": "inactive"}
